STUDY_SYSTEM: Ras (residues 1-166 of human Ha-Ras) (human, UniProt P01112 1-166)
PROTOCOL_DETAILS: cell-based or functional assay
ENDPOINT_LABEL: % Inhibition (Sos-mediated nucleotide exchange from Ras, mantGDP)

Sample records with % Inhibition (Sos-mediated nucleotide exchange from Ras, mantGDP):
[[record]]
binder = "AEGIYRADILRTEEGN [Peptide 4]"
result = "< 10%"

[[record]]
binder = "FEGIYRLELLK [Peptide 8]"
result = "< 5%"


Now look at this entry.
Request: Kindly indicate its recorded % Inhibition (Sos-mediated nucleotide exchange from Ras, mantGDP). Item: AEGIYRTDILRTEEGN [Peptide 3]
Result: < 10%

Cited source: patent US10221215
